# STUDY SYSTEM: IKBKB (human) (UniProt O14920)
# Sequence (O14920 whole entry, looked up): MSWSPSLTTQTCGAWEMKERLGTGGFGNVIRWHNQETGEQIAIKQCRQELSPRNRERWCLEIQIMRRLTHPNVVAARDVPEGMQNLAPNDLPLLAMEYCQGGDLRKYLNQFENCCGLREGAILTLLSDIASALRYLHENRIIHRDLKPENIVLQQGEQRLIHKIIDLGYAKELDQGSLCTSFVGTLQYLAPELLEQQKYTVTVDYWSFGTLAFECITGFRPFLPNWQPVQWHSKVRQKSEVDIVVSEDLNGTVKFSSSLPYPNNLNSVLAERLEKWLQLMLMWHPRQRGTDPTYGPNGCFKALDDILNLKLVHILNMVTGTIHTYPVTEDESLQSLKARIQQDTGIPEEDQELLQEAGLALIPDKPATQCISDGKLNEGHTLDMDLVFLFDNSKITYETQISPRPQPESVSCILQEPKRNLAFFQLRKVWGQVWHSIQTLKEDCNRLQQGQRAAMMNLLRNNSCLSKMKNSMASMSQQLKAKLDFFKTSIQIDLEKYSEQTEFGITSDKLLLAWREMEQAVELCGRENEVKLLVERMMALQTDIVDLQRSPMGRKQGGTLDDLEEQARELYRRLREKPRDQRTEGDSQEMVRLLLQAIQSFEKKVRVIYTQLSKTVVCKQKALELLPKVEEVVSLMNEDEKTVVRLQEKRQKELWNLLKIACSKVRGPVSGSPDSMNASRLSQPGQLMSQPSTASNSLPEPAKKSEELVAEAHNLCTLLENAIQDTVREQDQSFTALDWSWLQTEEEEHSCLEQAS
# METHOD DESCRIPTION: radiometric filter-binding kinase assay, Kinase HotSpot
# TEST CONDITIONS: compound 0.5 µM; ATP 10 µM
QUANTITY KIND: residual activity (%)
I only need the number, in %, no unit after it.

Find the recorded residual activity belonging to CCN(CC)CCNC(=O)c1c(C)[nH]c(/C=C2\C(=O)Nc3ccc(Cl)cc32)c1C and report it.
101

Give its residual activity value. Item: COc1ccc(COc2ccc(Cc3cnc(N)nc3N)cc2OC)cc1
99.9

Requested read-out: residual activity. Entry: CCCC(=O)Oc1ccc2[nH]c(C(=O)c3cc4ccccc4[nH]3)cc2c1
98.7

---
Item N#CC(C#N)=C(N)/C(C#N)=C/c1ccc(O)cc1 has what recorded residual activity?
102

###

Recorded measurements of residual activity, one per entry
# STUDY SYSTEM: ADRBK1 (human)
# METHOD DESCRIPTION: radiometric filter-binding kinase assay, Kinase HotSpot
# TEST CONDITIONS: compound 0.5 µM; ATP 10 µM

Below: 2 compounds and their reported residual activity.
Which value of residual activity has been reported for Nc1cccc(-c2cc3c(Oc4cccc(O)c4)ncnc3[nH]2)c1 in the records?
108%

Record request: residual activity value, item CC(C)N(CCC(=O)c1ccc2ccccc2c1)Cc1ccccc1
106%

***
Look up residual activity: CO[C@H]1CC2CC[C@@H](C)[C@@](O)(O2)C(=O)C(=O)N2CCCC[C@H]2C(=O)OC([C@H](C)C[C@@H]2CC[C@@H](O)[C@H](OC)C2)CC(=O)[C@H](C)/C=C(\C)[C@@H](O)[C@@H](OC)C(=O)[C@H](C)C[C@H](C)/C=C/C=C/C=C/1C (stereo not given in full)
102%

// lookup residual activity for O=C1NC(=O)C(c2cn(CCCn3ccnc3)c3ccccc23)=C1Nc1ccccc1
97.1%

Any idea what residual activity was measured for O=C1Nc2ccc(Cl)cc2/C1=C/c1cc(Cl)c(O)c(Cl)c1 ?
93.4%

Which residual activity is reported for this compound? O=C(Nc1cccc(Nc2nccc(Nc3cccc(C(F)(F)F)c3)n2)c1)C1CC1
84.7%

###

The entries below come with measured residual activity values attached.
# STUDY SYSTEM: UniProt Q9P286
# Sequence (Q9P286 whole entry, looked up): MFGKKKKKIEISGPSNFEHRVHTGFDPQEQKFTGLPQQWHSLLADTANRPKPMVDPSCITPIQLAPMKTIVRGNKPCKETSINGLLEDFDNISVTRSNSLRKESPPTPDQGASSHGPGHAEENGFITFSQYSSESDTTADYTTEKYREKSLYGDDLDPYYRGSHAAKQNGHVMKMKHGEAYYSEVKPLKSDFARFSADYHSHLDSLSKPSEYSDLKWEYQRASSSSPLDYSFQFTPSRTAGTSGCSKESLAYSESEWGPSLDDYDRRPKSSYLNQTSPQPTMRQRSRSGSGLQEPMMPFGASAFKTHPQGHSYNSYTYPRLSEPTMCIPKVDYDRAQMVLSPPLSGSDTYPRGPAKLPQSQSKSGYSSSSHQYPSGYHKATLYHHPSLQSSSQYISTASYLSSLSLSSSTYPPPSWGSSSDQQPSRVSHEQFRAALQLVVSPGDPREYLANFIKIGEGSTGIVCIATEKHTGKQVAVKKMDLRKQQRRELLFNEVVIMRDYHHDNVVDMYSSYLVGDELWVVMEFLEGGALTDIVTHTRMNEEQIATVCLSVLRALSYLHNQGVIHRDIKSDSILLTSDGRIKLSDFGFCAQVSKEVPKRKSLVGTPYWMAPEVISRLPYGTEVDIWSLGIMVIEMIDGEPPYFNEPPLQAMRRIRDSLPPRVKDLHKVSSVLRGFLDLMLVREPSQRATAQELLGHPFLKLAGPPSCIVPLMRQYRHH
# METHOD DESCRIPTION: radiometric filter-binding kinase assay, Kinase HotSpot
# TEST CONDITIONS: compound 0.5 µM; ATP 10 µM
Please give a number only; it is taken to be in %.

Param item = O=C1Nc2ccc(Cl)cc2/C1=C/c1cc(Cl)c(O)c(Cl)c1 ; retrieve measured residual activity.
91.5

Sample CNc1cc2c(Nc3cccc(Br)c3)ncnc2cn1 — what was its residual activity?
90.8

Let us move to another entry and its residual activity.
Name the recorded residual activity for CCC(=O)Nc1ccc2ncnc(Nc3cccc(Br)c3)c2c1 .
91.6

###

# STUDY SYSTEM: ZAP70 (human) (UniProt P43403)
# Sequence (P43403 whole entry, looked up): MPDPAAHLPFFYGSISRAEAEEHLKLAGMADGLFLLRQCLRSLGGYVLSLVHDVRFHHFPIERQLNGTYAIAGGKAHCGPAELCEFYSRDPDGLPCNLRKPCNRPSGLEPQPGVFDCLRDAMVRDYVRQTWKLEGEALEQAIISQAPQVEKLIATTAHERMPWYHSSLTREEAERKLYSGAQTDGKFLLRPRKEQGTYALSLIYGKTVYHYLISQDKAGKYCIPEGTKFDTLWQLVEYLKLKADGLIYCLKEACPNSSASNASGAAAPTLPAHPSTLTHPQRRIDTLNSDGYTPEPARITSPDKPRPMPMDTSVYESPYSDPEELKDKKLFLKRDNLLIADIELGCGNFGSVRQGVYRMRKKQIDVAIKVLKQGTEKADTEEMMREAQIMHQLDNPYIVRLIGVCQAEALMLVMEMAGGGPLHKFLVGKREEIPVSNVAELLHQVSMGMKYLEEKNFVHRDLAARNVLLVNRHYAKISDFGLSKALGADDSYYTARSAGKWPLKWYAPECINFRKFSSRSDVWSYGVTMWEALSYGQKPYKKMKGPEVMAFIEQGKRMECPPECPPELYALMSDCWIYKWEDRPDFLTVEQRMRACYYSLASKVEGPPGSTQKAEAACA
# METHOD DESCRIPTION: radiometric filter-binding kinase assay, Kinase HotSpot
# TEST CONDITIONS: compound 0.5 µM; ATP 10 µM
QUANTITY KIND: residual activity (%)
Form entry: value (%) — number only.

Below: 2 compounds and their reported residual activity.
Item under review: CNC(=O)c1cc(Oc2ccc(NC(=O)Nc3ccc(Cl)c(C(F)(F)F)c3)cc2)ccn1 . Reported residual activity?
97.8

Reported residual activity, compound Cc1[nH]c(/C=C2\C(=O)Nc3ccc(S(=O)(=O)N(C)c4cccc(Cl)c4)cc32)c(C)c1C(=O)N1CCN(C)CC1 : ____
94.4

More entries:
Sample Nc1ncnc2[nH]nc(Nc3ccc(F)cc3)c12 — what was its residual activity?
95.2

Item under review: COc1ccc2c(c[n+](C)c3c4cc5c(cc4ccc23)OCO5)c1OC . Reported residual activity?
101

Form field: reported residual activity of CCC(=O)Nc1ccc2ncnc(Nc3cccc(Br)c3)c2c1
113

Using the record for Cc1ccc(NC2=CC(=O)c3sc(C)nc3C2=O)cc1 , report its residual activity.
95.4

For the compound O=C(Nc1cccc(Nc2nccc(Nc3cccc(C(F)(F)F)c3)n2)c1)C1CC1 , what residual activity is on record?
126
